# EXPERIMENTAL PROTOCOL: NCI Yeast Anticancer Drug Screen. Data for the bub3 strain (AID 167)
# MEASUREMENT CONTEXT: S. cerevisiae bub3 mutant strain, at 50.0 µM, hits give high values
About 79,000 compounds went through this panel and 15% of them were active in at least one assay; those are over-represented in the sample as a whole.
MEASURE: growth inhibition (%)
// note: answer is a bare numeric in %

{"MOLECULE": "CC(=O)Nc1ccc2ccccc2c1SC1CC(=O)N(c2ccccc2)C1=O (stereo not drawn)", "RESULT UNIT": "%", "VALUE": -15.8}
{"MOLECULE": "CC1(C)CC(O)(Cc2ccccc2)C(O)c2ccccc21 (stereo not drawn)", "RESULT UNIT": "%", "VALUE": 26.1}

What does the data say about its growth inhibition? Entry: "Cc1ccc(NC(=O)CCC(CC(=O)C(C)(C)C)=NNC(=O)C(=O)NN)cc1C"
-7.4

What does the data say about its growth inhibition? Entry: "Nc1cc(Cl)cc2cc(Cl)cnc12"
47.4

What does the data say about its growth inhibition? Entry: "Cc1ccc(S(=O)(=O)NCCN)cc1"
-6.4

What does the data say about its growth inhibition? Entry: "CC(CC#N)=C(c1ccccc1)c1ccccc1"
-12.8

What does the data say about its growth inhibition? Entry: "Nc1ccc(SCCC(=O)O)cc1"
5.95

What does the data say about its growth inhibition? Entry: "NC(=O)/C=C1\NC(=O)CS1"
-4.55

----------
# EXPERIMENTAL PROTOCOL: NCI Yeast Anticancer Drug Screen. Data for the rad50 strain (AID 155);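 further: 0% = growth of vehicle-only cultures of the same strain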
# MEASUREMENT CONTEXT: S. cerevisiae rad50 strain growth inhibition; at 50.0 µM; hits give high values
This is part of a sample that, as a whole, favours compounds with a hit. Of some 79,000 tested, about 15% had one in any assay. Calls of active or inactive are those of the source. Cut-off read from the data, not from the text of the source: active = growth inhibition above about 70%; inactive = the rest.
MEASURE: growth inhibition

// worked examples, growth inhibition included
{"COMPOUND": "Cc1cc2c(cc1C)NS(=O)(=O)N2", "growth inhibition": "18.4% (inactive)"}
{"COMPOUND": "O=Cc1c[nH]c2ccccc2c1=O", "growth inhibition": "17.1% (inactive)"}
{"COMPOUND": "COc1cc(C)ccc1C(=O)C[n+]1ccc2ccccc2c1", "growth inhibition": "-41.3% (inactive)"}
{"COMPOUND": "OC(c1ccc(Cl)cc1)c1nc2ccccc2[nH]1 (configuration not stated)", "growth inhibition": "40.8% (inactive)"}
{"COMPOUND": "CN1C(c2ccccc2)=C(C#N)C(=O)CC(c2cccs2)N1C (configuration not stated)", "growth inhibition": "-8% (inactive)"}
{"COMPOUND": "CC(C)(C)CC(C)(O)C(=O)O (configuration not stated)", "growth inhibition": "6.9% (inactive)"}

What does the data say about its growth inhibition? Entry: "COc1cc(C(=O)C/C(CCC(=O)Nc2ccccc2[N+](=O)[O-])=N\NC(=O)C(N)=O)ccc1O"
-20.5% (inactive)

What does the data say about its growth inhibition? Entry: "CN(CCOc1ccccc1)Cc1ccccc1"
33.1% (inactive)

What does the data say about its growth inhibition? Entry: "Cc1[nH]c(-c2ccccc2)c2nc(N(C)C)oc(=O)c12"
-11.4% (inactive)

What does the data say about its growth inhibition? Entry: "CCCOC(=O)c1ccccc1C(=O)OC1CCCCC1"
8% (inactive)

What does the data say about its growth inhibition? Entry: CC(C)C1C(O)C23CCC4C(C)(CO)CCCC4(C)C2CC13 (configuration not stated)
-7.15% (inactive)

----------
# EXPERIMENTAL PROTOCOL: NCI Yeast Anticancer Drug Screen. Data for the mec2-1 strain (AID 157)
# MEASUREMENT CONTEXT: S. cerevisiae mec2-1 strain, at 50.0 µM, hits give high values
This is part of a sample that, as a whole, favours compounds with a hit. Of some 79,000 tested, about 15% had one in any assay. Where a SMILES comes first, the peptide text is derived from it. [ ]: non-standard residue; d: D form. The star is where a group is joined. Hyp = O=C(O)[CH]1C[CH](O)CN1; Cbz = O=C(OCc1ccccc1)*; Nva = CCC[CH](N)C(=O)O
# Lookup of reported growth inhibition keyed by entry
// note: answer is a bare numeric in %

// worked examples, growth inhibition included
{"MOLECULE": "Nc1nc(SCCc2ccccc2)c2[nH]cnc2n1", "RESULT UNIT": "%", "growth inhibition": -4.35}
{"MOLECULE": "CO[C@@H]1[C@@H](O)c2ccccc2N1C(C)=O", "RESULT UNIT": "%", "growth inhibition": 1.9}
{"MOLECULE": "CCOC(=O)/C(C#N)=C\\NC(=O)NC", "RESULT UNIT": "%", "growth inhibition": 2.3}
{"MOLECULE": "COC(=O)[C@H]1[C@H]2C[C@@H]3c4[nH]c5ccccc5c4CCN3C[C@H]2C[C@@H](O)[C@@H]1OC(=O)c1cc(OC)c(OC)c(OC)c1", "RESULT UNIT": "%", "growth inhibition": -1.35}
{"MOLECULE": "CO[Si](CCCN)(OC)OC", "RESULT UNIT": "%", "growth inhibition": -44.8}
{"MOLECULE": "CC(C)=C/C(C)=N/NC(N)=O", "RESULT UNIT": "%", "growth inhibition": -4.55}

What does the data say about its growth inhibition? Entry: CCC1SC(N)=NC1c1ccccc1 (stereo not given)
2.85

What does the data say about its growth inhibition? Entry: "CCCCCCCCCCCC(=O)N/N=C(\c1ccccc1)c1ccc(Cl)cc1"
88.2

What does the data say about its growth inhibition? Entry: "Cc1ccc2ccccc2c1Br"
-0.85

What does the data say about its growth inhibition? Entry: "O=C1CCC(=O)N2CCCCN12"
-12.4

What does the data say about its growth inhibition? Entry: "CCOC(=O)C1=C(C)NC(C)=C(C(=O)OCC)C1c1c(C)noc1C"
18.6

What does the data say about its growth inhibition? Entry: "CCOC(=S)Sc1ccc2c(c1)-c1ccc(F)cc1C2=O"
6.3

What does the data say about its growth inhibition? Entry: "CCCCNc1nnc(N)s1"
-24.2

What does the data say about its growth inhibition? Entry: CCOC(=O)c1ccc(CS(=O)c2ccccc2)c([N+](=O)[O-])c1 (stereo not given)
-4.75

What does the data say about its growth inhibition? Entry: CCOC1(OCC)CS(=O)(=O)C1c1ccccc1 (stereo not given)
-10.2

What does the data say about its growth inhibition? Entry: CC(=O)OCC1OC(n2c(C)c(N=Nc3ccc(Cl)cc3)c(C)c(C#N)c2=S)C(OC(C)=O)C(OC(C)=O)C1OC(C)=O (stereo not given)
-0.75

What does the data say about its growth inhibition? Entry: "COC(=O)c1ccc(Cl)cc1OCC(=O)Nc1ccccc1"
-0.55

What does the data say about its growth inhibition? Entry: "CC(=S)NC(=O)Nc1cccc2ccccc12"
-8.45

What does the data say about its growth inhibition? Entry: CCCC(NC(=O)OCc1ccccc1)C(=O)NC(Cc1ccccc1)C(N)=O (stereo not given) (Cbz-[Nva]-Phe-NH2; configuration not given here)
-0.9

What does the data say about its growth inhibition? Entry: "COC(=O)c1c(C)c(C)cc(C)c1C"
-13.2

What does the data say about its growth inhibition? Entry: "N#C/C(=C\c1ccc(Cl)cc1)C(=O)c1ccccc1"
12.8

What does the data say about its growth inhibition? Entry: NC(=O)CNC(=O)C1CC(O)CN1C(=O)C1CCCN1C(=O)OCc1ccccc1 (stereo not drawn) (Cbz-Pro-[Hyp]-Gly-NH2; configuration not given here)
1.1

What does the data say about its growth inhibition? Entry: "O=C(O)c1cccc(F)n1"
2.05

What does the data say about its growth inhibition? Entry: "c1ccc([Si]2(c3ccccc3)[Si](c3ccccc3)(c3ccccc3)[Si](c3ccccc3)(c3ccccc3)[Si]2(c2ccccc2)c2ccccc2)cc1"
-1.4

What does the data say about its growth inhibition? Entry: CS(=O)(=O)OC1CCCCC1OS(C)(=O)=O (stereo not given)
8.25

----------
# EXPERIMENTAL PROTOCOL: NCI Yeast Anticancer Drug Screen. Data for the sgs1 mgt1 strain (AID 161);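 further: 0% = growth of cultures given vehicle only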
# MEASUREMENT CONTEXT: S. cerevisiae sgs1 mgt1 strain, at 50.0 µM
Compounds without any hit were thinned out: in the full panel of roughly 79,000, 15% have a hit. The source made the active and inactive calls. Cut-off read from the data, not from the text of the source: active = growth inhibition above about 70%; inactive = the rest.
Answer with one of the outcomes given here: true for active, false for inactive

{"MOLECULE": "c1ccc(NCc2nc3ccccc3[nH]2)cc1", "DISCRETE LABEL": "false"}
{"MOLECULE": "CC(=O)NNc1nc(C)c(C(=O)/C=C/c2ccccc2Cl)s1", "DISCRETE LABEL": "false"}
{"MOLECULE": "CCCCCCCCCCCCCCCCC(CCCCCCCCCCCCCCCC)c1ccccc1", "DISCRETE LABEL": "false"}
{"MOLECULE": "N#CC(c1ccccc1)N(CCc1ccccc1)C(=O)c1ccc(C(=O)N(CCc2ccccc2)C(C#N)c2ccccc2)cc1 (configuration not stated)", "DISCRETE LABEL": "false"}
{"MOLECULE": "NC(=O)Cc1c[nH]c2ccccc12", "DISCRETE LABEL": "false"}
{"MOLECULE": "Nc1cccc2sccc12", "DISCRETE LABEL": "false"}
{"MOLECULE": "CC(c1ccc2ccc3cccc4ccc1c2c34)C(C(=O)O)C(=O)O (configuration not stated)", "DISCRETE LABEL": "false"}
{"MOLECULE": "Cc1cc2n(n1)C(=O)CC(=O)C2", "DISCRETE LABEL": "false"}

Please indicate how the test categorized "O=C(Nc1ccc(Cl)cc1)Nc1nnc(-c2ccc(F)cc2)o1" .
false

Please indicate how the test categorized "COc1ccc(-c2cc(-c3cc(-c4ccc(OC)cc4)on3)no2)cc1" .
false

Please indicate how the test categorized CC(C(N)=O)N1C(=O)C2C3CCC(O3)C2C1=O (configuration not stated) .
false

Please indicate how the test categorized "CCCc1c(O)ccc(C)c1C" .
false

Ref: PubChem BioAssay (NCI)
